Tested on: ACHN renal
Test: NCI-60 one-dose screen, 48 h (100 = growth as untreated, 0 = no growth, -100 = all killed)
Settings: 10 µM unless noted
The panel holds about 83,000 compounds, 20% with a hit somewhere; the sample as a whole holds those more often.
Can you tell me growth for the items I'm about to list?
One number for each entry, in %.

Some solved cases for reference:
O=C(Nc1cc(Cl)cc(Cl)c1)Oc1c(Cl)c(Cl)c(Cl)c(Cl)c1Cl :: 65.8
O=c1cc(CP(=O)(O)O)c2cc(O)c(-c3ccccc3)cc2o1 :: 98.4
ClC(Cl)c1nc(-c2ccccc2)n2nc(-c3ccccc3)cc2n1 :: -57
CC(C)(Sc1cc(C(C)(C)C)c(O)c(C(C)(C)C)c1)Sc1cc(C(C)(C)C)c(OC(=O)CCC(=O)O)c(C(C)(C)C)c1 :: 44.5

Now look at this entry.
Q) Form field: reported growth of CCN(CC)CCOc1ccc(C(=O)/C=C\c2ccc(Cl)cc2Cl)cc1
A) 52.7

----------
System: MALME-3M melanoma
Assay: NCI-60 one-dose screen, 48 h
Settings: 10 µM unless noted
Procedure: Cells are grown in 96 well plates and exposed to the test compound for 48 hours. Compounds are tested at a single concentration, which is 10^-5 M for most compounds. The reported endpoint is percent growth (GI% or GIPRCNT), where numbers from 0 - 100% represent growth inhibition, and numbers from -100% - 0 represent cell death. For example, a value of 40 represents 60% growth inhibition. A value of 0 means no net growth occurred over the course of the experiment. […]
About 83,000 compounds went through this panel and 20% of them were active in at least one assay; those are over-represented in the sample as a whole. The source made the active and inactive calls. Rule for the calls: active = growth percent below 10; inactive = the rest.
Outcomes you can answer with include only these: active, inactive

Here are 4 molecules together with their reported answers.
O=c1cc(CNc2cc(F)cc(F)c2)c2ccc(I)cc2[nH]1 :: inactive
NCCCNc1nc2ccccc2c2c(=O)c3cc(Cl)ccc3sc12 :: active
COc1cc(/C=C2\C(=O)N(CCCOc3cc(O)c4c(=O)cc(-c5ccccc5)oc4c3)c3ccccc32)cc(OC)c1O :: inactive
CCn1cc(C(=O)N/N=C/c2ccccc2)c(=O)c2cc(F)c(N3CCNC(C)C3)c(F)c21 (stereo not given) :: active

Now take the following molecule into account.
Q) Tell me the assay call for Clc1ccc(Nc2nnc(CNc3ccccc3)c3ccccc23)cc1 please.
A) active

----------
Tested on: UACC-257 melanoma
Assay: NCI-60 one-dose screen, 48 h (100 = growth as untreated, 0 = no growth, -100 = all killed)
Conditions: 10 µM unless noted
Compounds without any hit were thinned out: in the full panel of roughly 83,000, 20% have a hit.
Can you tell me growth for the items I'm about to list?
Numbers only, in %.

Some solved cases for reference:
CNC(=O)c1cc(Oc2ccc3c(c2)sc2nc(-c4cc(C(F)(F)F)cc(C(F)(F)F)c4)cn23)ccn1 :: 34.5
CCOC(=O)c1c(C)nc2ccccc2c1/C=C/c1ccc(F)cc1 :: 83

For every item below, please supply its growth.
1. O=C(O)CC(C(=O)O)/C(=C\c1ccccc1)c1ccccc1 (stereo not given)
2. CC(C)Cc1nc(Nc2ccccc2)[nH]c(=O)c1C#N
3. Cc1cc(O)cc(-c2nn(C)cc2-c2cc(N3CCOCC3)nc(-c3cccnc3)n2)c1
4. O=C(Nc1ccc(Nc2ccncc2)cc1)c1ccc(Nc2ccnc3ccc([N+](=O)[O-])cc23)cc1
5. Cc1cc(=O)n(C(=S)Nc2ccc(Cl)cc2)c2cc(O)ccc12
6. CCN(CC)CCOc1ccc(C(=O)/C=C\c2ccc(Cl)cc2Cl)cc1

A)
100
81.2
61.3
101
110
3.72

For every item below, please supply its growth.
1. O=C(NCCCCO)c1cncnc1Nc1ccc2c(ccn2Cc2cccc(F)c2)c1
2. COc1ccc(/C=N/Nc2c3ccccc3nc3ccccc23)cc1
3. C#Cc1cccc(Nc2ncnc3cc(NC(=O)CCl)ccc23)c1
4. Nc1c(Cl)cc(/C=C2\C=Cc3ccccc32)cc1Cl
5. COc1ccc(-c2nc3ccc(C)cc3c3c2c(=O)n(C)c(=O)n3C)cc1OC
6. COc1ccc(-c2cc(-c3cc(OC)ccc3OC)nc(SCC(C)=O)c2C#N)cc1
7. CC12OC(CC(O)C1O)n1c3ccccc3c3c4c(c5c6ccccc6n2c5c31)C(=O)N(CCN1CCCC1)C4=O (stereo not given)

A)
1. 96.7
2. 103
3. -7
4. 98.3
5. 114
6. 93.5
7. 24.5

For every item below, please supply its growth.
1. NS(=O)(=O)c1ccc(C(=O)N=Nc2c(O)[nH]c3ccc(Cl)cc23)cc1
2. COc1cc(/C=C2\C(=O)N(CCCOc3cc(O)c4c(=O)cc(-c5ccccc5)oc4c3)c3ccccc32)cc(OC)c1O
3. O=CN1N=C(c2cccc(Nc3ccnc4cc(Cl)ccc34)c2)CC1c1ccc(Cl)cc1 (stereo not given)
4. COc1cc(O)c2c(=O)c3c(CC=C(C)C)cc(OC)c(O)c3oc2c1
5. COc1cc2c3c(c4c5ccccc5[nH]c4c2c(OC)c1OC)C(=O)N(CCN1CCCCC1)C3=O

A)
103
90.9
52.8
63.1
42.2

----------
System: HCT-116 colon
Test: NCI-60 one-dose screen, 48 h (100 = growth as untreated, 0 = no growth, -100 = all killed)
Conditions: 10 µM unless noted
About 83,000 compounds went through this panel and 20% of them were active in at least one assay; those are over-represented in the sample as a whole.
Can you tell me growth for the items I'm about to list?
One number for each entry, in %.

Some solved cases for reference:
CCOC(=O)CC[C@H](NC(=O)c1ccc(N(C)Cc2cnc3nc(N)nc(N)c3n2)c2ccccc12)C(=O)OCC :: 20.4
COC(=O)c1nc(-c2ccccc2)oc1S(=O)(=O)N1CCCC(C)C1 (stereo not given) :: 63.9
CCOC(=O)/C(=C(/C)NCC(C)C)c1cc(O)c(O)c2c(C)cc(=O)[nH]c12 :: 10.1
CCN(CC)CCOc1ccc(C(=O)/C=C\c2ccc(Cl)cc2Cl)cc1 :: -90.2

Now look at this entry.
Q) Form field: reported growth of O=S(O)c1cc(Cl)cc(Cl)c1OCc1ccccc1
A) 96.2

----------
Can you tell me growth for the items I'm about to list?
Test system: M14 melanoma
Experiment: NCI-60 one-dose screen, 48 h (100 = growth as untreated, 0 = no growth, -100 = all killed)
Settings: 10 µM unless noted
About 83,000 compounds went through this panel and 20% of them were active in at least one assay; those are over-represented in the sample as a whole. Calls of active or inactive are those of the source. Rule for the calls: active = growth percent below 10; inactive = the rest.

Some solved cases for reference:
N#Cc1ccc(O)c(C2=NCC(c3ccc(-c4ccccc4)cc3)O2)c1 (centres undefined) :: -16.6% (active)
O=c1ccc2ccc(OCCN3CCCCC3)cc2o1 :: 96.1% (inactive)
CC(C)n1c2ccc(Br)cc2c2c3c(c4c5ccccc5ccc4c21)C(=O)NC3=O :: 92.7% (inactive)

For every item below, please supply its growth.
1. COc1ccc(/C=C(/C(=O)N2CCNCC2)c2cc(OC)c(OC)c(OC)c2)cc1O
2. Brc1ccc(Nc2nc(Nc3cnc4ccccc4c3)c3[nH]cnc3n2)cc1
3. CCN(CC)c1ccc(-c2cc(-c3cc(OC)c(OC)c(OC)c3)nc(N3CCC(O)CC3)c2C#N)cc1
4. CCN1C(=O)N(c2ccccc2)C2NC(=S)N(/N=C/C=C/c3ccccc3OC)C21 (centres undefined)
5. COc1ccc2c(c1)CC[C@@H]1[C@@H]2CC[C@]2(C)c3c(cc(C#N)c4c3sc3ccccc34)C[C@@H]12
6. N#CC1=C(N)Oc2c(sc3c(F)cccc23)C1c1ccc([N+](=O)[O-])cc1 (centres undefined)

A)
1: 38% (inactive); 2: 84.8% (inactive); 3: -56.4% (active); 4: 11.2% (inactive); 5: 161% (inactive); 6: -50.9% (active)

For every item below, please supply its growth.
1. Cc1cc(NCCCNc2ccnc3cc(Cl)ccc23)nc(Nc2ccc(C(=O)N3CCCCC3)cc2)n1
2. COC12C=C/C(=C(/C(=O)OCc3csc(SC)n3)C(=O)CCCCCCCCC3(OC)C=C/C(=C(/C(=O)OCc4cnc(SC)s4)C(=O)CCCCCCCC1)O3)O2 (centres undefined)
3. c1cc(OCCN2CCCC2)ccc1CNc1ccc2nc(CCC3CCCCC3)[nH]c2c1
4. C(=C(\C1=NCCN1)n1ccc2ccccc21)/c1ccccc1
5. Cc1ccc(NC(=O)c2sc3nc(C)c(C(O)c4ccccc4)cc3c2N)cc1 (centres undefined)
6. CCOC(=O)C#Cc1c(C(=O)OCC)nnn1[C@@H]1O[C@H](COC)[C@@H](OC)[C@H]1OC

A)
1. -68.3% (active)
2. 12% (inactive)
3. -86.9% (active)
4. 91.4% (inactive)
5. 16.3% (inactive)
6. 61.8% (inactive)

For every item below, please supply its growth.
1. N#Cc1ccc(/C=C/c2cn(-c3ccccc3)nc2-c2cccc([N+](=O)[O-])c2)cc1
2. COc1cc2ncnc(Nc3ccc(F)c(Cl)c3)c2cc1OCC(=O)N1CCOCC1
3. Cc1c2ccccc2nc2cc3c(cc12)[C@H]1CC[C@]2(C)C(=O)CC[C@H]2[C@@H]1CC3
4. N#Cc1c(-c2ccc(Cl)cc2)nc(NN=Cc2ccc[nH]2)nc1N1CCOCC1

A)
68.8% (inactive)
90.4% (inactive)
102% (inactive)
105% (inactive)

Attribution: PubChem BioAssay (NCI)
